Below: a set of entries, each annotated with reported growth.
System: A498 renal
Test: NCI-60 one-dose screen, 48 h (100 = growth as untreated, 0 = no growth, -100 = all killed)
Settings: 10 µM
The panel holds about 83,000 compounds, 20% with a hit somewhere; the sample as a whole holds those more often.
Give the value, in units of %, as a plain number.

For orientation, consider the following solved cases.
[
  {
    "COMPOUND": "COc1ccc(Nc2cc(C)nc(NCCCNc3ccnc4cc(Cl)ccc34)n2)cc1",
    "MEASUREMENT_UNITS": "%",
    "growth": -0.29
  },
  {
    "COMPOUND": "O=C(Nc1cccc(-n2cc(-c3ccncc3)c(-c3ccc(O)c(Cl)c3)n2)c1)c1cc(C(F)(F)F)cc(C(F)(F)F)c1",
    "MEASUREMENT_UNITS": "%",
    "growth": 57.2
  },
  {
    "COMPOUND": "COc1cc(-c2cc(/C=C/C(=O)c3ccc(Cl)c(Cl)c3)[nH]n2)cc(OC)c1OC",
    "MEASUREMENT_UNITS": "%",
    "growth": 70.6
  },
  {
    "COMPOUND": "O=C(Nc1ccc(Cl)c(Cl)c1)Nc1c(Oc2ccc(Cl)c(Cl)c2)ccc(Cl)c1S(=O)(=O)O",
    "MEASUREMENT_UNITS": "%",
    "growth": -13.3
  }
]

So what growth did O=[N+]([O-])c1cccc(N=Cc2ccc3c(c2)OCO3)c1 get with A498 renal? 118

----------
Below: a set of entries, each annotated with reported growth.
System: A498 renal
Assay: NCI-60 one-dose screen, 48 h (100 = growth as untreated, 0 = no growth, -100 = all killed)
Conditions: 10 µM
Compounds without any hit were thinned out: in the full panel of roughly 83,000, 20% have a hit.
Give the value, in units of %, as a plain number.

For orientation, consider the following solved cases.
[
  {
    "COMPOUND": "Cc1ccc(S(=O)(=O)OCCN(CCOS(=O)(=O)c2ccc(C)cc2)c2c[nH]c(=O)[nH]c2=O)cc1",
    "MEASUREMENT_UNITS": "%",
    "VALUE_OBSERVED": 117
  },
  {
    "COMPOUND": "Cn1c(N)c(N=Nc2ccc(S(=O)(=O)Nc3nccs3)cc2)c(=O)n(C)c1=O",
    "MEASUREMENT_UNITS": "%",
    "VALUE_OBSERVED": 96.9
  }
]

So what growth did c1ccc2c(-c3nc(N4CCOCC4)c4c5c(sc4n3)CCCCCC5)cccc2c1 get with A498 renal? 102

Repeat for the following compound: CCCC(F)C(=O)O (stereo unspecified) 98.5

Repeat for the following compound: COc1ccc(-c2cc(-c3ccc(N(C)C)cc3)c(C#N)c(N3CCCC3)n2)cc1 106

Repeat for the following compound: O=C1OCC2=C1C(c1ccc(Cl)c(Cl)c1)c1cc3c(cc1N2CCO)OCCO3 (stereo unspecified) -5.46

Repeat for the following compound: c1ccc2c(c1)oc1c3cccnc3ccc21 87.2

Repeat for the following compound: COc1ccc2nc3ccccc3c(NCCNCC(C)O)c2c1 (stereo unspecified) -48.5

----------
Test system: HCC-2998 colon
Experiment: NCI-60 one-dose screen, 48 h (100 = growth as untreated, 0 = no growth, -100 = all killed)
Details: 10 µM
Compounds without any hit were thinned out: in the full panel of roughly 83,000, 20% have a hit.
MEASURE: growth (%)
Give the value, in units of %, as a plain number.

[
  {
    "COMPOUND": "CCOC(=O)c1ccoc1",
    "MEASUREMENT_UNITS": "%",
    "growth": 113
  }
]

Now consider a different compound.
Look up growth for this compound: COc1ccc2nc3cc(Cl)ccc3c(NCCNCC(C)O)c2c1 (stereo not given) 40.8
